Hello, the source for this data is ChEMBL document CHEMBL4513216, in case you need it.

Test: Toxicity liver stage against HepG2, at 10uM
Format: cell-based
Parameters: test concentration 10 uM, cell line HepG2-A16-CD81EGFP
Settings: human, HepG2-A16-CD81EGFP cells; read-out: INHIBITION

>  <molecule>
Cn1cc(CN2C[C@@H]3COC[C@]3(CNC(=O)c3ccsc3)C2)cn1

>  <cytotoxicity at 10 µM, %>
-0.0273

$$$$
>  <molecule>
Cc1cn2c(n1)CCC(NC(=O)c1ccc(CS(C)(=O)=O)o1)C2 (stereo unspecified)

>  <cytotoxicity at 10 µM, %>
-5

$$$$
>  <molecule>
COCCNC(=O)NC(c1ccccc1)c1ccccc1OC (stereo unspecified)

>  <cytotoxicity at 10 µM, %>
-0.238

$$$$
>  <molecule>
CCOc1ccccc1C(CC(=O)Nc1ccncc1)NC(C)=O (stereo unspecified)

>  <cytotoxicity at 10 µM, %>
-12.6

$$$$
>  <molecule>
O=C(NCc1cc[nH]n1)NCC(O)c1ccc(F)cc1F (stereo unspecified)

>  <cytotoxicity at 10 µM, %>
1.78

$$$$
>  <molecule>
O=c1c(NCc2ccccn2)c(NCC(O)CN2CCOCC2)c1=O (stereo unspecified)

>  <cytotoxicity at 10 µM, %>
-54.5

$$$$
>  <molecule>
c1ccc2c(c1)CCN(c1ncnc3sc4c(c13)CCNC4)C2

>  <cytotoxicity at 10 µM, %>
5.66

$$$$
>  <molecule>
COCc1noc(CCNC(=O)c2ccc(C3CCCO3)s2)n1 (stereo unspecified)

>  <cytotoxicity at 10 µM, %>
3.19

$$$$
>  <molecule>
COCCc1noc(CN(C)c2nccc(C)n2)n1

>  <cytotoxicity at 10 µM, %>
9.34

$$$$
>  <molecule>
CCCNC(=O)NCc1nc(C)c(C)o1

>  <cytotoxicity at 10 µM, %>
5.19

$$$$
>  <molecule>
CCOc1ccc(CC(=O)N(CCC(=O)OC)CC2CCCO2)cc1 (stereo unspecified)

>  <cytotoxicity at 10 µM, %>
5.04

$$$$
>  <molecule>
O=C(NCCSCc1cccs1)C1CCCN(C(=O)N2CCCC2)C1 (stereo unspecified)

>  <cytotoxicity at 10 µM, %>
-13.6

$$$$
>  <molecule>
Cc1nc(Cn2c3c(ccc2=O)CCN(CC2CCC2)CC3)cs1

>  <cytotoxicity at 10 µM, %>
5.1

$$$$
>  <molecule>
CCOCc1ccccc1NC(=O)NC1CCN(C2CCCC2)C1 (stereo unspecified)

>  <cytotoxicity at 10 µM, %>
9.42

$$$$
>  <molecule>
CN1CC(Oc2ccc(Cl)cc2)=NC(SCC(=O)c2ccccc2)=N1

>  <cytotoxicity at 10 µM, %>
-0.731

$$$$
>  <molecule>
Cc1sc2nc(CCN)nc(N3CCS(=O)(=O)CC3)c2c1C

>  <cytotoxicity at 10 µM, %>
-44.1

$$$$
>  <molecule>
Cc1cccc(CN2C(=O)CCC23CCN(c2ccccn2)CC3)n1

>  <cytotoxicity at 10 µM, %>
3.2

$$$$
>  <molecule>
CC(C)n1cc(CN2CCCN(C(=O)c3nccnc3N)CC2)cn1

>  <cytotoxicity at 10 µM, %>
7.13

$$$$
>  <molecule>
CSc1ncccc1C(=O)Nc1ccc(Cn2ccccc2=O)cc1

>  <cytotoxicity at 10 µM, %>
2.77

$$$$
>  <molecule>
OCC1(O)CCN(Cc2ccc(C3CCCCO3)o2)CC1 (stereo unspecified)

>  <cytotoxicity at 10 µM, %>
-5.95

$$$$
>  <molecule>
CC(NC(=O)N(C)Cc1ccncc1)c1cn(-c2ccccc2)nn1 (stereo unspecified)

>  <cytotoxicity at 10 µM, %>
-47.7

$$$$
